Each recorded value in this set is attributed to PubChem BioAssay AID651815.

- study-target: DNA dC->dU-editing enzyme APOBEC-3F (Homo sapiens) (UniProt Q8IUX4)
- Sequence (Q8IUX4 whole entry, looked up): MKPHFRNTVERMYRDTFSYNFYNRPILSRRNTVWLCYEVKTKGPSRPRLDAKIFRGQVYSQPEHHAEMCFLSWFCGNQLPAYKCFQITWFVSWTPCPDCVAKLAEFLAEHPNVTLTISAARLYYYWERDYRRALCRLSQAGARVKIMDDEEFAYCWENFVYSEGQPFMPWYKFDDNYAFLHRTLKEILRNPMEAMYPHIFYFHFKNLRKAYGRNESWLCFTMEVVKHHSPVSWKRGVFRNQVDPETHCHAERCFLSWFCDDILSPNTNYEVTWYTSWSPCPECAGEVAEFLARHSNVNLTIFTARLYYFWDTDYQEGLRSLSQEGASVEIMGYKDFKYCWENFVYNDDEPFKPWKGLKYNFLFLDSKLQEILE
- measurement-description: qHTS for inhibitors of Vif-A3F interactions: Cherry picks counterscreen; also: nearly all actives have a fitted effect of over 65% in size
- reported-conditions: HeLa A3F-eYFP/Vif cells, eYFP fluorescence, 24 h; series mostly up to 46.1 µM
Among all 2,100 compounds or so, about 1,100 (52%) were called active. Another 29% or so got no clear call; they are omitted. Calls follow the shape of the dose curve; as a rule, active = well fitted inhibition curve with a large enough effect; inconclusive = small, poorly fitted or top-dose-only effect; inactive = no such curve, though single readings can be large or run the other way. So high a share suggests a set chosen from earlier hits. Some of the results follow.
Outcome codes: 1 = active, 0 = inactive

| compound | assigned-category |
| --- | --- |
| CCN(CC)c1ccc(/C=C/c2ccncc2)cc1 | 1 |
| CCC(=O)OCc1cnc(C)c2oc(=O)c(C(=O)Nc3ccccc3C(F)(F)F)cc12 | 0 |
| CN(C)c1ccc(/C=C/c2ccncc2)cc1 | 1 |
| C/C(=N\NC(=O)C(C)n1nc(C)c([N+](=O)[O-])c1C)c1ccccc1O (stereo unspecified) | 0 |
| CO/N=C\CC(=O)Nc1ccc(Cl)c(Cl)c1 | 1 |
| COc1ccc(S(=O)(=O)Nc2cccc(-c3ccc4nncn4n3)c2)cc1 | 1 |
| C/C(=N/N=C(\C)c1ccccc1O)c1ccccc1O | 1 |
| O=C1c2ccccc2C(=O)c2cc(N3CCCCC3)ccc21 | 1 |
| CCN(CC)c1ccc(/C=C/C2=C3C=CC=CC3NC=C2)cc1 (stereo unspecified) | 1 |
| COCCNC(=S)N/N=C(\C)c1ccccc1O | 0 |
| CC(C)(C)c1ccc(Oc2ccc(NC(=O)c3ccccc3C(=O)O)cn2)cc1 | 0 |

* * *

- study-target: DNA dC->dU-editing enzyme APOBEC-3F (Homo sapiens) (UniProt Q8IUX4)
- measurement-description: qHTS for inhibitors of Vif-A3F interactions: Cherry picks counterscreen; also: nearly all actives have a fitted effect of over 65% in size
- reported-conditions: HeLa A3F-eYFP/Vif cells, eYFP fluorescence, 24 h; series mostly up to 46.1 µM
About 1,100 (52%) of roughly 2,100 compounds were called active. Inconclusive results (about 29%) are left out. The call rests on the fitted dose curve; in most records, active means well fitted inhibition curve with a large enough effect; inconclusive means small, poorly fitted or top-dose-only effect; inactive means no such curve, though single readings can be large or run the other way. The set was probably picked from earlier hits. This is one part of the list.
Outcomes: 1.0 = active, 0.0 = inactive

| smiles-str | study-target | assigned-category |
| --- | --- | --- |
| O=C(N/N=C/c1ccc2c(c1)OCO2)c1cc(-c2ccco2)nc2ccccc12 | DNA dC->dU-editing enzyme APOBEC-3F (Homo sapiens) (UniProt Q8IUX4) | 1.0 |
| O=C(c1ccccc1F)n1c2c(c3ccccc31)CCCC2 | DNA dC->dU-editing enzyme APOBEC-3F (Homo sapiens) (UniProt Q8IUX4) | 1.0 |
| Cc1ccc2c(c1)sc(-c1ccc(N(C)C)cc1)[n+]2C | DNA dC->dU-editing enzyme APOBEC-3F (Homo sapiens) (UniProt Q8IUX4) | 1.0 |
| CC(=O)c1c(C)oc2c1cc(NS(=O)(=O)c1ccc(Br)cc1)c1ccccc12 | DNA dC->dU-editing enzyme APOBEC-3F (Homo sapiens) (UniProt Q8IUX4) | 1.0 |
| CCCN1CCc2c(sc(NC(=S)NC(=O)c3ccccc3)c2C#N)C1 | DNA dC->dU-editing enzyme APOBEC-3F (Homo sapiens) (UniProt Q8IUX4) | 1.0 |
| CN(C)c1ccc(/C=C/C=C/c2ccnc3ccccc23)cc1 | DNA dC->dU-editing enzyme APOBEC-3F (Homo sapiens) (UniProt Q8IUX4) | 1.0 |
| CC(C)N1CCc2c(sc(NC(=O)c3cc4cc([N+](=O)[O-])ccc4s3)c2C(N)=O)C1 | DNA dC->dU-editing enzyme APOBEC-3F (Homo sapiens) (UniProt Q8IUX4) | 1.0 |
| O=C(Nc1ccc(Cl)cn1)c1cccc(S(=O)(=O)N2CCCCCC2)c1 | DNA dC->dU-editing enzyme APOBEC-3F (Homo sapiens) (UniProt Q8IUX4) | 0.0 |
| O=S(=O)(Nc1nc2ccccc2nc1Nc1cccc(S(=O)(=O)N2CCCCC2)c1)c1ccccc1 | DNA dC->dU-editing enzyme APOBEC-3F (Homo sapiens) (UniProt Q8IUX4) | 1.0 |
| CC(C)CN(CC(C)C)S(=O)(=O)c1ccc(C(=O)Nc2sc3c(c2C(N)=O)CCN(C(C)C)C3)cc1 | DNA dC->dU-editing enzyme APOBEC-3F (Homo sapiens) (UniProt Q8IUX4) | 1.0 |
| COc1cccc2nccc(/C=C/c3ccc(N(C)C)cc3)c12 | DNA dC->dU-editing enzyme APOBEC-3F (Homo sapiens) (UniProt Q8IUX4) | 1.0 |
| C=CCN1C(=O)/C(=C/c2ccc(O)c(OC)c2)S/C1=N/c1nccs1 | DNA dC->dU-editing enzyme APOBEC-3F (Homo sapiens) (UniProt Q8IUX4) | 0.0 |
| COc1ccc(/C=N/NC(=O)c2cccnc2)cc1COc1ccc(NC(C)=O)cc1 | DNA dC->dU-editing enzyme APOBEC-3F (Homo sapiens) (UniProt Q8IUX4) | 1.0 |
| COc1ccc(C(=O)Nc2sc3c(c2C#N)CCN(C(C)=O)C3)cc1 | DNA dC->dU-editing enzyme APOBEC-3F (Homo sapiens) (UniProt Q8IUX4) | 1.0 |
| COc1cc(OC)c(/C=C/c2ccnc3ccccc23)c(OC)c1 | DNA dC->dU-editing enzyme APOBEC-3F (Homo sapiens) (UniProt Q8IUX4) | 1.0 |
| COc1cc(/C=C2\SC(=S)N(NC(=O)c3ccccc3OC)C2=O)ccc1O | DNA dC->dU-editing enzyme APOBEC-3F (Homo sapiens) (UniProt Q8IUX4) | 0.0 |
| CCCCN(CCCC)S(=O)(=O)c1ccc(C(=O)Nc2sc3c(c2C(N)=O)CCN(CC)C3)cc1 | DNA dC->dU-editing enzyme APOBEC-3F (Homo sapiens) (UniProt Q8IUX4) | 1.0 |
| Cc1nnc(SCC(=O)NCc2ccccc2F)c2nn(-c3ccc(Cl)cc3)c(C)c12 | DNA dC->dU-editing enzyme APOBEC-3F (Homo sapiens) (UniProt Q8IUX4) | 1.0 |
| CN(C)c1ccc(/C=C/c2ccnc3cc(Cl)ccc23)cc1 | DNA dC->dU-editing enzyme APOBEC-3F (Homo sapiens) (UniProt Q8IUX4) | 1.0 |
| COc1cc(/C=C2\SC(=S)N(Nc3ncc(C(F)(F)F)cc3Cl)C2=O)ccc1O | DNA dC->dU-editing enzyme APOBEC-3F (Homo sapiens) (UniProt Q8IUX4) | 1.0 |
| N#CC1=C(N)C(C#N)(C#N)[C@H](c2ccoc2)[C@H]2CN(Cc3ccccc3)CC=C12 | DNA dC->dU-editing enzyme APOBEC-3F (Homo sapiens) (UniProt Q8IUX4) | 1.0 |
